Please go through the items and note down their Ki.
Test System: dopamine transporter (DAT) (Homo sapiens, UniProt Q01959)
Sequence (Q01959 whole entry, species assumed): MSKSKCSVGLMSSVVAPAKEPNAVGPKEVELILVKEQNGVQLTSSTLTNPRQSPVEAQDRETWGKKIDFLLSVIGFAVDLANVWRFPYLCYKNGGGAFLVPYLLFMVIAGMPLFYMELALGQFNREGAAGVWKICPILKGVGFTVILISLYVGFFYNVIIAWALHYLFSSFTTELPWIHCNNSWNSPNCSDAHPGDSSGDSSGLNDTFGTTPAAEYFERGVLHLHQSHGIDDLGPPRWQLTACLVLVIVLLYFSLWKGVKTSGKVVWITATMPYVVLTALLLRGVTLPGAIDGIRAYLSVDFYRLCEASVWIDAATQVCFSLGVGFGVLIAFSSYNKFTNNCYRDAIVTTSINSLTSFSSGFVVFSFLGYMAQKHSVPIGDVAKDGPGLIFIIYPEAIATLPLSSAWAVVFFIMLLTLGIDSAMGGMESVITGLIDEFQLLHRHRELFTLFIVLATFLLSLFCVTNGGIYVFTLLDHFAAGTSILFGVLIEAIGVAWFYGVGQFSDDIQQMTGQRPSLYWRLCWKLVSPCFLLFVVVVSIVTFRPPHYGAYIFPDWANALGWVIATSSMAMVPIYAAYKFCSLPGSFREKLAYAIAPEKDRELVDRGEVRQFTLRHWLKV
Test Details: [3H]DA uptake inhibition at the dopamine transporter
Condition Set: read-out: [3H]DA uptake, Ki ± SE
Numeric answer only, unit µM assumed.

Prompt: Reported Ki, molecule COC(=O)C1C2CC3CCC1N3CC2=Cc1ccco1 (centres unmarked) : ____
Response: 2.02

Prompt: Now consider COC(=O)C1C2CC3CCC1N3CC2=Cc1ccoc1 (centres unmarked) and answer again.
Response: 1.88

Prompt: Now consider COC(=O)C1C2CC3CCC1N3CC2=Cc1ccccc1 (single isomer, unassigned) [5a] and answer again.
Response: 0.481

Prompt: Now consider COC(=O)C1C2CC3CCC1N3CC2=Cc1ccc(F)cc1 (centres unmarked) and answer again.
Response: 6.62

Prompt: Now consider COC(=O)C1C2CC3CCC1N3CC2=Cc1ccc(Cl)c(Cl)c1 (centres unmarked) and answer again.
Response: 1.92

Prompt: Now consider COC(=O)C1C2CC3CCC1N3CC2=Cc1ccccc1 (single isomer, unassigned) [compound 6] and answer again.
Response: 5.07

Prompt: Now consider COC(=O)C1C2CC3CCC1N3CC2=Cc1ccc(OC)cc1 (centres unmarked) and answer again.
Response: 3.13

Prompt: Now consider COC(=O)C1C2CC3CCC1N3CC2=Cc1cccc2ccccc12 (centres unmarked) and answer again.
Response: 9.72

###

Test System: UniProt P31645
Test Details: [3H]5-HT uptake inhibition at the serotonin transporter
Condition Set: read-out: [3H]5-HT uptake, Ki ± SE
Text: These novel ligands have been tested for their binding affinity at the DAT as well as for the inhibition of reuptake of NE, 5-HT, and DA at their specific transporters.
Readout Label: Ki (nM)
Numeric answer only, unit nM assumed.

Prompt: Reported Ki, compound COC(=O)C1C2CC3CCC1N3CC2=Cc1ccccc1 (single isomer, unassigned) [compound 6] : ____
Response: 7480

Prompt: Now consider COC(=O)C1C2CC3CCC1N3CC2=Cc1ccc(Cl)c(Cl)c1 (stereo not drawn) [5b] and answer again.
Response: 19.8

Prompt: Now consider COC(=O)C1C2CC3CCC1N3CC2=Cc1ccoc1 (stereo not drawn) [5g] and answer again.
Response: 498

###

Please go through the items and note down their 5-HT/DA ratio.
Test System: serotonin transporter (5-HTT) (Homo sapiens, UniProt P31645)
Sequence (P31645 whole entry, species assumed): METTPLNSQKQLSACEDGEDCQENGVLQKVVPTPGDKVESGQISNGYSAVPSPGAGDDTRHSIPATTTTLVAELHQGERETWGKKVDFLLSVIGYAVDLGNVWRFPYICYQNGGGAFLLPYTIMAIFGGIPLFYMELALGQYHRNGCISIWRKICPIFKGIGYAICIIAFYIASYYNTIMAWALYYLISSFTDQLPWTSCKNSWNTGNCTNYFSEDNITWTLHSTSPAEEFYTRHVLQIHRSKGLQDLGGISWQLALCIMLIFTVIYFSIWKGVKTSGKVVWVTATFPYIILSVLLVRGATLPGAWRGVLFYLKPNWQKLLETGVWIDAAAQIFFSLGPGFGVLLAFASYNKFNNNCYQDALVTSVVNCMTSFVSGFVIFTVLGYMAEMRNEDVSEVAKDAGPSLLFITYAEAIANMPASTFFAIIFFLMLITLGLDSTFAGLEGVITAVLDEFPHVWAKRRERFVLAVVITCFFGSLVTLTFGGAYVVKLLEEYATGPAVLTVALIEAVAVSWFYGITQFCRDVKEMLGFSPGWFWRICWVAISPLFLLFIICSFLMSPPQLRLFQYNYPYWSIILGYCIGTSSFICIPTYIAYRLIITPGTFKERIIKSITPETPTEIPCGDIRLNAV
Test Details: [3H]5-HT uptake inhibition at the serotonin transporter
Type: cell-based
Condition Set: ratio of uptake Ki, 5-HT vs DA

Prompt: Reported 5-HT/DA ratio, molecule COC(=O)C1C2CC3CCC1N3CC2=Cc1ccccc1 (single isomer, unassigned) [compound 6] : ____
Response: 1.48

Prompt: Now consider COC(=O)C1C2CC3CCC1N3CC2=Cc1ccco1 (centres unmarked) and answer again.
Response: 1.82

Prompt: Now consider COC(=O)C1C2CC3CCC1N3CC2=Cc1ccccc1 (single isomer, unassigned) [5a] and answer again.
Response: 2.36

Prompt: Now consider COC(=O)C1C2CC3CCC1N3CC2=Cc1ccc(F)cc1 (centres unmarked) and answer again.
Response: 0.05

Prompt: Now consider COC(=O)C1C2CC3CCC1N3CC2=Cc1cccc2ccccc12 (centres unmarked) and answer again.
Response: 0.01

Prompt: Now consider COC(=O)C1C2CC3CCC1N3CC2=Cc1ccc(Cl)c(Cl)c1 (centres unmarked) and answer again.
Response: 0.01

Prompt: Now consider COC(=O)C1C2CC3CCC1N3CC2=Cc1ccoc1 (centres unmarked) and answer again.
Response: 0.26

Prompt: Now consider COC(=O)C1C2CC3CCC1N3CC2=Cc1ccc(OC)cc1 (centres unmarked) and answer again.
Response: 0.02

###

Test System: norepinephrine transporter (NET) (Homo sapiens)
Test Details: [3H]NE uptake inhibition at the norepinephrine transporter
Condition Set: read-out: [3H]NE uptake, Ki ± SE
Description: These novel ligands have been tested for their binding affinity at the DAT as well as for the inhibition of reuptake of NE, 5-HT, and DA at their specific transporters.
Please go through the items and note down their Ki.
Numeric answer only, unit nM assumed.

Prompt: Quick check: Ki on norepinephrine transporter (NET) (Homo sapiens), item COC(=O)C1C2CC3CCC1N3CC2=Cc1ccccc1 (single isomer, unassigned) [5a] ?
Response: 53

Prompt: Now consider COC(=O)C1C2CC3CCC1N3CC2=Cc1ccc(OC)cc1 (centres unmarked) and answer again.
Response: 187

Prompt: Now consider COC(=O)C1C2CC3CCC1N3CC2=Cc1ccc(Cl)c(Cl)c1 (centres unmarked) and answer again.
Response: 1000

Prompt: Now consider COC(=O)C1C2CC3CCC1N3CC2=Cc1ccccc1 (single isomer, unassigned) [compound 6] and answer again.
Response: 1530

Prompt: Now consider COC(=O)C1C2CC3CCC1N3CC2=Cc1cccc2ccccc12 (centres unmarked) and answer again.
Response: 5370

Prompt: Now consider COC(=O)C1C2CC3CCC1N3CC2=Cc1ccco1 (centres unmarked) and answer again.
Response: 111

Prompt: Now consider COC(=O)C1C2CC3CCC1N3CC2=Cc1ccc(F)cc1 (centres unmarked) and answer again.
Response: 584

Prompt: Now consider COC(=O)C1C2CC3CCC1N3CC2=Cc1ccoc1 (centres unmarked) and answer again.
Response: 164

###

Test System: serotonin transporter (5-HTT) (Homo sapiens)
Test Details: [3H]5-HT uptake inhibition at the serotonin transporter
Condition Set: read-out: [3H]5-HT uptake, Ki ± SE
Please go through the items and note down their Ki.
Numeric answer only, unit nM assumed.

Prompt: Reported Ki, compound COC(=O)C1C2CC3CCC1N3CC2=Cc1cccc2ccccc12 (centres unmarked) [5e] : ____
Response: 121

Prompt: Now consider COC(=O)C1C2CC3CCC1N3CC2=Cc1ccc(OC)cc1 (centres unmarked) [5c] and answer again.
Response: 55.7

Prompt: Now consider COC(=O)C1C2CC3CCC1N3CC2=Cc1ccc(F)cc1 (centres unmarked) [5d] and answer again.
Response: 335

Prompt: Now consider COC(=O)C1C2CC3CCC1N3CC2=Cc1ccccc1 (single isomer, unassigned) [5a] and answer again.
Response: 1140

Prompt: Now consider COC(=O)C1C2CC3CCC1N3CC2=Cc1ccco1 (centres unmarked) [5f] and answer again.
Response: 3680

###

Test System: norepinephrine transporter (NET) (Homo sapiens)
Test Details: [3H]NE uptake inhibition at the norepinephrine transporter
Assay type: cell-based
Condition Set: ratio of uptake Ki, NE vs DA
Readout Label: NE/DA ratio
# print the numeric value only

Prompt: Reported NE/DA ratio, compound COC(=O)C1C2CC3CCC1N3CC2=Cc1ccccc1 (single isomer, unassigned) [compound 6] : ____
Response: 0.3

Prompt: Now consider COC(=O)C1C2CC3CCC1N3CC2=Cc1ccco1 (centres unmarked) [5f] and answer again.
Response: 0.05

Prompt: Now consider COC(=O)C1C2CC3CCC1N3CC2=Cc1cccc2ccccc12 (centres unmarked) [5e] and answer again.
Response: 0.55

Prompt: Now consider COC(=O)C1C2CC3CCC1N3CC2=Cc1ccccc1 (single isomer, unassigned) [5a] and answer again.
Response: 0.11

Prompt: Now consider COC(=O)C1C2CC3CCC1N3CC2=Cc1ccoc1 (centres unmarked) [5g] and answer again.
Response: 0.09

Prompt: Now consider COC(=O)C1C2CC3CCC1N3CC2=Cc1ccc(OC)cc1 (centres unmarked) [5c] and answer again.
Response: 0.06

Prompt: Now consider COC(=O)C1C2CC3CCC1N3CC2=Cc1ccc(F)cc1 (centres unmarked) [5d] and answer again.
Response: 0.09

Prompt: Now consider COC(=O)C1C2CC3CCC1N3CC2=Cc1ccc(Cl)c(Cl)c1 (centres unmarked) [5b] and answer again.
Response: 0.52

###

Test System: norepinephrine transporter (NET) (Homo sapiens, UniProt P23975)
Sequence (P23975 whole entry, species assumed): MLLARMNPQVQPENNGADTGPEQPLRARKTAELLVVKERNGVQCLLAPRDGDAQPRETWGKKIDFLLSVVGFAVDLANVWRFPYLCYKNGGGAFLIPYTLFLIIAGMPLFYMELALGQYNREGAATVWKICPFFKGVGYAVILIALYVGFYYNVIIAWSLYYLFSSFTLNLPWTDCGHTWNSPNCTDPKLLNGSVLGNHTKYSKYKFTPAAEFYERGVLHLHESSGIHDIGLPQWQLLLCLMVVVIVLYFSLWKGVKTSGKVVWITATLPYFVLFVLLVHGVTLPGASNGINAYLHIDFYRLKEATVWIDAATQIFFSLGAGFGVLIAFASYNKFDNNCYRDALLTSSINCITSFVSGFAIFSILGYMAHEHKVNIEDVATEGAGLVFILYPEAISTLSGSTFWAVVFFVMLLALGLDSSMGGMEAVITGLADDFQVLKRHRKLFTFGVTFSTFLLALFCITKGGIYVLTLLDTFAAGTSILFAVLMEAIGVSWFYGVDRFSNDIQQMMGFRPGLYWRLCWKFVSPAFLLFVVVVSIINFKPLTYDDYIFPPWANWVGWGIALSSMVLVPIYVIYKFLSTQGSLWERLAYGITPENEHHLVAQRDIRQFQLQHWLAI
Test Details: [3H]NE uptake inhibition at the norepinephrine transporter
Type: cell-based
Condition Set: ratio of uptake Ki, NE vs 5-HT
Please go through the items and note down their NE/5-HT ratio.
# print the numeric value only

Prompt: Reported NE/5-HT ratio, compound COC(=O)C1C2CC3CCC1N3CC2=Cc1ccc(Cl)c(Cl)c1 (centres unmarked) [5b] : ____
Response: 50.6

Prompt: Now consider COC(=O)C1C2CC3CCC1N3CC2=Cc1ccccc1 (single isomer, unassigned) [5a] and answer again.
Response: 0.05

Prompt: Now consider COC(=O)C1C2CC3CCC1N3CC2=Cc1ccc(F)cc1 (centres unmarked) [5d] and answer again.
Response: 1.74

Prompt: Now consider COC(=O)C1C2CC3CCC1N3CC2=Cc1cccc2ccccc12 (centres unmarked) [5e] and answer again.
Response: 44.5

Prompt: Now consider COC(=O)C1C2CC3CCC1N3CC2=Cc1ccc(OC)cc1 (centres unmarked) [5c] and answer again.
Response: 3.37

Prompt: Now consider COC(=O)C1C2CC3CCC1N3CC2=Cc1ccco1 (centres unmarked) [5f] and answer again.
Response: 0.03

Prompt: Now consider COC(=O)C1C2CC3CCC1N3CC2=Cc1ccccc1 (single isomer, unassigned) [compound 6] and answer again.
Response: 0.2

Prompt: Now consider COC(=O)C1C2CC3CCC1N3CC2=Cc1ccoc1 (centres unmarked) [5g] and answer again.
Response: 0.33
